Tested on: ACHN
Test: NCI tumour cell line growth inhibition, 48 h
Calls of active or inactive are those of the source. Rule as the data show it: active = GI50 up to about 1.1 µM and inactive = higher.
Measured GI50 by item

Give the measured GI50 of `COc1cc(C(=O)Oc2c(C#N)sc3c2c(=O)n(-c2ccccc2)c(=S)n3-c2ccccc2)cc(OC)c1OC` .
8.87 µM (inactive)

Give the measured GI50 of COc1ccc(/N=N/C(=O)NC(CC(C)C)C(=O)NCC(=O)O)cc1 (stereo not drawn) .
1.54 µM (inactive)

Give the measured GI50 of `C[C@@H]1S[C@H](c2ccccc2F)N2Cc3ccccc3N=C12` .
31.4 µM (inactive)

---

Test system: KM-20L2
Assay: NCI tumour cell line growth inhibition, 48 h
Active and inactive are the calls of the source. Rule as the data show it: active = GI50 up to about 1.1 µM and inactive = higher.
# valid calls are active, inactive; nothing else

Which outcome was entered for the compound `CC1(C)Cc2cc(C(=O)O)c3c(c2C1=O)COCC3` in this test?
inactive

Which outcome was entered for the compound COc1ccc(C2C(=O)C(Cl)N2Nc2nc(C)cc(O)n2)cc1OC (configuration not stated) in this test?
inactive

From: ChEMBL document CHEMBL1201862
